# assayedSystem: T1, human OX40 on cells (CHO-hOX40, 293HEK-hOX40, Jurkat-hOX40, activated primary CD4+ T cells) (human, UniProt P43489 29-277)
# T1 construct: whole, on cells; The cell type is told in each assay; also called CHO-OX40
# T1 sequence (looked up): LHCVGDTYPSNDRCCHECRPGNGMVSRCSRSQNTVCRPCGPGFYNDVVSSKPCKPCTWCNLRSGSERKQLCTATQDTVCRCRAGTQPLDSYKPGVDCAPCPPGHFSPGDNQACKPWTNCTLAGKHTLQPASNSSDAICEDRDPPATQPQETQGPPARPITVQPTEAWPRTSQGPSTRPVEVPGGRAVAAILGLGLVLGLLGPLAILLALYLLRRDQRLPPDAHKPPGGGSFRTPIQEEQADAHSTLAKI
# runDescription: flow cytometry, CHO-hOX40, 100 nM blocker, competitor OX40L-hFc-fluorescein
assayReadout: MFI of OX40L signal on CHO-OX40 cells (MFI)
Dear colleague, please return just the value in MFI, with no unit written.

# input binder: ADI-20113, IgG1 format (antibody, V domains shown, Made in yeast) VH: QVQLVESGGGVVQPGRSLRLSCAASGFTFSSYGMHWVRQAPGKGLEWVAVISYDGSNKYYADSVKGRFTISRDNSKNTLYLQMNSLRAEDTAVYYCARGRPWYSETGTSAFDIWGQGTMVTVSS VL: EIVMTQSPATLSVSPGERATLSCRASQSVSSNLAWYQQKPGQAPRLLIYSASTRATGIPARFSGSGSGTEFTLTISSLQSEDFAVYYCQQHNVYPPYTFGGGTKVEIKR ; wanted: its MFI of OX40L signal on CHO-OX40 cells
24000

# input binder: ADI-20048, IgG1 format (antibody, V domains shown, Made in yeast) VH: QVQLQESGPGLVKPSETLSLTCTVSGGSISSYYWSWIRQPPGKGLEWIGYIYSSGSTNYNPSLKSRVTISVDTSKNQFSLKLSSVTAADTAVYYCARDAPGGSSYQDYYMDVWGKGTTVTVSS VL: EIVLTQSPATLSLSPGERATLSCRASQSVSSYLAWFQQKPGQAPRLLIYDASNRATGIPARFSGSGSGTDFTLTISSLEPEDFAVYYCQQAFSMPPTFGGGTKVEIKR ; wanted: its MFI of OX40L signal on CHO-OX40 cells
34300

# input binder: OX40L (control reagent; recombinant OX40L, Acro Biosystems) (ligand, UniProt P23510 51-183, looked up, may be the same reagent as OX40L-hFc) QVSHRYPRIQSIKVQFTEYKKEKGFILTSQKEDEIMKVQNNSVIINCDGFYLISLKGYFSQEVNISLHYQKDEEPLFQLKKVRSVNSLMVASLTYKDKVYLNVTTDNTSLDDFHVNGGELILIHQNPGEFCVL ; wanted: its MFI of OX40L signal on CHO-OX40 cells
19300

# input binder: IgG1 control (antibody, V domains shown, Negative control; The printed entries seem to begin with a leader peptide) VH: EVRLLESGGGLVQPGGSLRLSCAASGFTFSNYAMGWVRQAPGKGLEWVSAISGSGGSTYYADSVKGRFTTSRDDSKNALYLQMNSLRAEDTAVYYCARGGPGWYAADVWGQGTTVTVSS VL: DIQMTQSPSSLSASVGDRVTITCRASQSISSYLNWYQQKPGKAPKLLIYAASSLQSGVPSRFSGSGSGTDFTLTISSLQPEDFATYYCQQADLPAFAFGGGTKVEIKR ; wanted: its MFI of OX40L signal on CHO-OX40 cells
35100

Values compiled from patent US20200140562A1.
